The reported numbers originate from patent EP4585616A1.

target: T1, Extracellular domain of human ROR1 protein (ROR1-ECD) (human, UniProt Q01973 30-403)
T1 construct: Expressed in HEK293T cells; also called human ROR1-ECD; purified human ROR1 protein extracellular segment
T1 sequence (Q01973 other isoform, or with tags, fused parts or gaps): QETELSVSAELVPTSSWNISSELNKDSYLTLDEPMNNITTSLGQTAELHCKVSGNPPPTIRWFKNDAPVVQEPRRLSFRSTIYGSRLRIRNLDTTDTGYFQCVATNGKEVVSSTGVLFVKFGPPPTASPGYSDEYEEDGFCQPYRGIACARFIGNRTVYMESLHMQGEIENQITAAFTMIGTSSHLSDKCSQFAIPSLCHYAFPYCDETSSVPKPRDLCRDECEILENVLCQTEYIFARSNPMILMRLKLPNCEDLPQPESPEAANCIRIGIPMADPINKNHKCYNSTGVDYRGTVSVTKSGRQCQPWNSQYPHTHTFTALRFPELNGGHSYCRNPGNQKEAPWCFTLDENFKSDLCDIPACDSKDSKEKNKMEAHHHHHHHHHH
protocol_notes: ELISA, plate-coated ROR1-ECD

binder	EC50 / nM
mAb005c_v1 (antibody, IgG1, V domains shown, Chimeric mutant in hIgG1,k vector; the VH entry already holds the site-directed change; also called human-mouse chimeric antibody mutant of mAb005c; site-directed mutant of mAb005c) VH: EVQLVESGGGLVKPGGSLKLSCAASGFTFNSYAMSWVRQTPEKRLEWVATISDAGSYTYYPDNEKGRFTISRDNAKNNLYLQMSHLKSEDTAIYYCVRGGYYYNLYAMDYWGQGTSVTVSS VL: DIVLTQSPASLAVSLGQRAIISCKASQSVSFPGTSLMHWYQQKPGQQPKLLIYRASNLEAGVPTRFSGSGSRTDFTLNIHPVEEDDTATYYCQQSREYPWTFGGGTQLEIK	0.046
mAb009c (antibody, V domains shown, Human-mouse chimeric) VH: EVQLQQSGPELVKPGASLKLSCKASGYTFPDYNIHWVKQSHGKSLEWIGYINPNNGNTNYNQKFEGKATLTVSKSSSTAYMELRSLTSDDSAVYSCARRGYGSSYAMDFWGQGTSVTVSS VL: DVLMTQTPLSLPVSLGNQASISCRSSHIIVHTNGNTYLEWYLQKPGQSPKLLIYKVSNRFSGVPDRFSGSGSGTDFTLKISRVEAEDLGVYYCFQGSRVPYTFGGGTKLEIK	0.017
mAb007c (antibody, V domains shown, Human-mouse chimeric) VH: EVQLQQSGPELVKPGASVKMSCKASGYTFTDYNMHWVKQSHGKSLEWIGYINPNNGGTSYNQKFKGKATLTVNKSSSTAYMELRSLTSDDSAVYYCARRGYGSGYAMDYWGQGTSVTVSS VL: DVLMTQTPLSLPVSLGDQASISCRSSQSIVHTNGNTYLEWYLQNPGQSPKLLIYKVFNRFSGVPDRFSGSGSGTDFTLKISRVEAEDLGVYYCFQGSLFPYTFGGGTKLEIK	0.012
